# Tested on: RXF 393 renal
# Protocol summary: NCI-60 one-dose screen, 48 h
# Condition notes: 10 µM unless noted
This is part of a sample that, as a whole, favours compounds with a hit. Of some 83,000 tested, about 20% had one in any assay. Active and inactive are the calls of the source. How the source made its calls: active means growth percent below 10; inactive means the rest.
Select the correct class. Options are yes (1) for active, no (0) for inactive and nothing else.

q: Outcome? COc1ccc2c(c1)NC(=O)CN2c1nc(NC2CC2)nc2ccccc12
a: no (0)

q: Please state the recorded outcome for this compound: COc1cc(/C=C2\CCCC3=C2N=C2SC(C)=NN2C3c2cc(OC)c(OC)c(OC)c2)cc(OC)c1OC (centres undefined)
a: no (0)

q: // return assay outcome for COc1cc(/C=C/C(=O)c2ccccc2O)ccc1OCCCOc1cc2c(cc1OC)C(=O)N1CCC[C@H]1C=N2
a: yes (1)

q: Please state the recorded outcome for this compound: COc1ccc(-c2nc3sccn3c2-c2ccnc(NCCCNS(=O)(=O)c3ccc4ccccc4c3)n2)cc1
a: no (0)

q: # fetch the recorded call for COc1cccc(-c2nc3sccn3c2-c2ccnc(NCCNS(=O)(=O)c3ccccc3)n2)c1 here
a: no (0)

Next:
q: Recorded test outcome, item O=S(=O)(NCCNc1cc(-c2cn(-c3ccccc3)nc2-c2ccccc2)ccn1)c1cccc2ccccc12
a: no (0)

q: Given NS(=O)(=O)c1ccc(CN2C(=O)c3cccc4cccc(c34)C2=O)cc1 , state the outcome it received in this test.
a: no (0)

q: Test call, this compound: COC(=O)c1cc(-c2cccs2)c(C#N)c(N)c1C#N
a: no (0)

q: Record request — test call for COc1ccc(S(=O)(=O)Nc2cc(/C=C\c3cc(OC)c(OC)c(OC)c3)cc(OC)c2OC)cc1OC
a: yes (1)

q: Call for entry CC(=O)c1cc(C(=O)c2ccc3c(c2)Sc2ccccc2N3)c2cc(C)ccn12 :
a: no (0)

q: Status in this test for O=C(Nc1ccc(I)cc1)c1cccc([N+](=O)[O-])c1O ?
a: no (0)

Hello, the source for this data is PubChem BioAssay (NCI), in case you need it.
